# TARGET_DESC: ER-β (Homo sapiens)
# Construct: made in house; host or cells: cell-free: TNT T7 Quick-Coupled rabbit reticulocyte lysate (Promega L1170)
# Sequence (Q92731 54-530 limits assumed): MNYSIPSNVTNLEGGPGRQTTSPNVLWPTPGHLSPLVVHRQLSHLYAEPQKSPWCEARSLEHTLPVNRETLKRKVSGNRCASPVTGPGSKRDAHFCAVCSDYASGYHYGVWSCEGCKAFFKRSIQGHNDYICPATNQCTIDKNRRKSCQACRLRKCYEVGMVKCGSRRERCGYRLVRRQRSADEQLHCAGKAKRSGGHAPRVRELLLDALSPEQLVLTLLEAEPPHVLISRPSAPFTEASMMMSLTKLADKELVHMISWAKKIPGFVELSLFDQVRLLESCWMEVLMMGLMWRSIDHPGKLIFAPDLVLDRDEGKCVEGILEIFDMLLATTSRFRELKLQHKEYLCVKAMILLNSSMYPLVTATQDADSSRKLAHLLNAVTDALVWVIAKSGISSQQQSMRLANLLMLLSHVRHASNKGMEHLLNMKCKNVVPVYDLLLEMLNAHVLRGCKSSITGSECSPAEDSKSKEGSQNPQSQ
# PROTOCOL_NOTES: Estrogen receptor binding measurement (competition with [125I]-estradiol), ER-β; tables head the values "FP β-ER Ki"
# COND: read-out: FP β-ER Ki
# Description: Receptor protein was prepared by in vitro transcription and translation of these plasmids using the TNT T7 Quick-Coupled reticulocyte lysate system (Promega Cat.#L1170). […] Programmed lysate was then aliquotted and stored frozen at −80° C. […] Receptor-bound and unbound radioligand was separated by filtration over sephadex columns. […] A scintillation cocktail (145 μL) was added to the eluted radioligand/receptor complex, and radio-label was measured by liquid scintillation counting. […]
pKi: −log10 of the molar value.
REPORTED_ENDPOINT: pKi

Before answering, review these 3 worked examples.
> print(dat)
                                compound  reported.endpoint  reported
1  O=c1c(-c2ccc(O)cc2)coc2cc(O)cc(Cl)c12                pKi      8.37
2    O=c1oc2cc(O)cc(Cl)c2cc1-c1ccc(O)cc1                pKi      8.74
3   O=c1c(-c2ccc(O)cc2)coc2cc(O)cc(F)c12                pKi      7.41

1 = N#Cc1cc(O)cc2occ(-c3ccc(O)cc3)c(=O)c12
2 = O=c1c(-c2ccc(O)cc2Cl)coc2cc(O)cc(Cl)c12
QUERY: Please let me know which one, 1 or 2 , has a lower measured pKi value. Answer format: the label of the selected item.
RESULT: 1
(1: 7.24, 2: 7.80)

A = CSc1cc(O)cc2occ(-c3ccc(O)cc3)c(=O)c12
B = O=c1c(-c2ccc(O)cc2)coc2cc(O)cc(Br)c12
C = Cc1cc(O)ccc1-c1coc2cc(O)cc(Cl)c2c1=O
QUERY: # rank_down: sort by pKi, max first Lab note: record answer as labels in requested order.
RESULT: B, C, A
(B: 8.55, C: 7.30, A: 7.08)

I = Oc1ccc(C2COc3cc(O)cc(Cl)c3C2)cc1 (stereo not shown)
II = O=c1c(-c2ccc(O)cc2)coc2cc(O)cc(I)c12
QUERY: Sort I and II by pKi descending and give the first. Answer format: the label of the selected item.
RESULT: I

====

# TARGET_DESC: ER-β (Homo sapiens)
# Construct: made in house; host or cells: cell-free: TNT T7 Quick-Coupled rabbit reticulocyte lysate (Promega L1170)
# PROTOCOL_NOTES: Estrogen receptor binding measurement (competition with [125I]-estradiol), ER-β; tables head the values "FP β-ER Ki"
# COND: ER-α Ki / ER-β Ki
REPORTED_ENDPOINT: Selectivity

Before answering, review these 6 worked examples.
> print(dat)
                                  compound  reported
1    O=c1c(-c2ccc(O)cc2)coc2cc(O)cc(Br)c12        90
2     Cc1cc(O)ccc1-c1coc2cc(O)cc(Cl)c2c1=O        18
3  O=c1c(-c2ccc(O)cc2Cl)coc2cc(O)cc(Cl)c12        19
4      O=c1oc2cc(O)cc(Cl)c2cc1-c1ccc(O)cc1        35
5     O=c1c(-c2ccc(O)cc2)coc2cc(O)cc(I)c12        38
6    CSc1cc(O)cc2occ(-c3ccc(O)cc3)c(=O)c12         7

P = Oc1ccc(C2COc3cc(O)cc(Cl)c3C2)cc1 (stereo not shown)
Q = O=c1c(-c2ccc(O)cc2)coc2cc(O)cc(Cl)c12
QUERY: Sort P and Q by Selectivity descending and give the first. Answer format: the label of the selected item.
RESULT: Q
